Data credit: the supplement of paper PMC11061612

Test system: NCI-H747 (Colorectal Carcinoma)
Assay: Bliss excess, mean over the matrix (fraction); higher = more synergy
The reader will find reported Bliss excess values listed item by item below.
Number, no unit, nothing else.

compound	endpoint result
CN(C)CCCOc1ccc(-c2ccc3ncc4c(c3c2)n(C2CCOCC2)c(=O)n4C)cn1 [AZD0156] + C=CCn1c(=O)c2cnc(Nc3ccc(N4CCN(C)CC4)cc3)nc2n1-c1cccc(C(C)(C)O)n1 [AZD1775] (first compound max 1 µM, partner max 1 µM)	-0.0309

Now, please, on to the next compound.
GET /value?item= COc1nnc2ccc(N3CCC(c4ccc(OCCN5CCN(C)C(=O)[C@H]5C)cc4)CC3)nn12 [AZD5153] + CN(CC[C@H](CSC1=CC=CC=C1)NC2=C(C=C(C=C2)S(=O)(=O)NC(=O)C3=CC=C(C=C3)N4CCC(CC4)[C@H](C5=CC=CC=C5C6=CC=C(C=C6)Cl)O)S(=O)(=O)C(F)(F)F)CCO [AZD4320] (first compound max 1 µM, 7x7, partner max 1 µM) &field=Bliss excess returns -0.0055

----------
System: KYSE-410 (Esophageal Squamous Cell Carcinoma)
Assay: Bliss excess, mean over the matrix (fraction); higher = more synergy
The reader will find reported Bliss excess values listed item by item below.
Number, no unit, nothing else.

compound	Bliss excess
NC1(C(=O)N[C@@H](CCO)c2ccc(Cl)cc2)CCN(c2ncnc3[nH]ccc23)CC1 [Capivasertib] + CC(=O)c1c(C)c2cnc(Nc3ccc(N4CCNCC4)cn3)nc2n(C2CCCC2)c1=O [Palbociclib] (first compound max 10 µM, 7x7, partner max 10 µM)	0.0199
CC(=O)c1c(C)c2cnc(Nc3ccc(N4CCNCC4)cn3)nc2n(C2CCCC2)c1=O [Palbociclib] + CC1(C)CCC(CN2CCN(c3ccc(C(=O)NS(=O)(=O)c4ccc(NCC5CCOCC5)c([N+](=O)[O-])c4)c(Oc4cnc5[nH]ccc5c4)c3)CC2)=C(c2ccc(Cl)cc2)C1 [Venetoclax] (first compound max 10 µM, 7x7, partner max 1 µM)	-0.0511

GET /value?item= CC1(C)CCC(CN2CCN(c3ccc(C(=O)NS(=O)(=O)c4ccc(NCC5CCOCC5)c([N+](=O)[O-])c4)c(Oc4cnc5[nH]ccc5c4)c3)CC2)=C(c2ccc(Cl)cc2)C1 [Venetoclax] + COc1cc(Nc2ncc3c(n2)-c2ccc(Cl)cc2C(c2c(F)cccc2OC)=NC3)ccc1C(=O)O [Alisertib] (first compound max 1 µM, 7x7, partner max 10 µM) &field=Bliss excess returns -0.0651

----------
System: LU-139 (Small Cell Lung Carcinoma)
Assay: Bliss excess, mean over the matrix (fraction); higher = more synergy
The reader will find reported Bliss excess values listed item by item below.
Number, no unit, nothing else.

molecule	assayed system	endpoint result
CCN(CCO)CCCOc1ccc2c(Nc3cc(CC(=O)Nc4cccc(F)c4)[nH]n3)ncnc2c1 [AZD2811] + C=CCn1c(=O)c2cnc(Nc3ccc(N4CCN(C)CC4)cc3)nc2n1-c1cccc(C(C)(C)O)n1 [AZD1775] (first compound max 1 µM, partner max 1 µM)	LU-139 (Small Cell Lung Carcinoma)	-0.0426

Now, please, on to the next molecule.
GET /value?item= CN(CCO)CC[C@H](CSc1ccccc1)Nc1ccc(S(=O)(=O)NC(=O)c2ccc(N3CCC([C@@H](O)c4ccccc4-c4ccc(Cl)cc4)CC3)cc2)cc1S(=O)(=O)C(F)(F)F [AZD4320] + C[C@@H](Nc1cc(F)cc(F)c1)c1cc(C(=O)N(C)C)cc2c(=O)cc(N3CCOCC3)oc12 [AZD8186] (first compound max 1 µM, 7x7, partner max 3 µM) &field=Bliss excess returns -0.0107

----------
Test system: CAL-51 (Breast Carcinoma)
Assay: combination Emax (second highest fraction inhibited in the dose matrix, 72 h); higher = more inhibition; extreme values may be limits of the assay
The reader will find reported combination Emax values listed item by item below.
Number, no unit, nothing else.

GET /value?item= Cc1c2c(nn1C)CSCc1cc(n(C)n1)CSc1cc(c3ccccc3c1)OCCCc1c(C(=O)O)n(C)c3c-2c(Cl)ccc13 [AZD5991] + CN(C)CCCOc1ccc(-c2ccc3ncc4c(c3c2)n(C2CCOCC2)c(=O)n4C)cn1 [AZD0156] (first compound max 1 µM, 7x7, partner max 1 µM) &field=combination Emax returns 0.476

GET /value?item= CN(C)CCCOc1ccc(-c2ccc3ncc4c(c3c2)n(C2CCOCC2)c(=O)n4C)cn1 [AZD0156] + CCN(CCO)CCCOc1ccc2c(Nc3cc(CC(=O)Nc4cccc(F)c4)[nH]n3)ncnc2c1 [AZD2811] (first compound max 1 µM, 7x7, partner max 1 µM) &field=combination Emax returns 0.196

GET /value?item= CC1(C)CCC(CN2CCN(c3ccc(C(=O)NS(=O)(=O)c4ccc(NCC5CCOCC5)c([N+](=O)[O-])c4)c(Oc4cnc5[nH]ccc5c4)c3)CC2)=C(c2ccc(Cl)cc2)C1 [Venetoclax] + C1CN(CCC1(C(=O)N[C@@H](CCO)C2=CC=C(C=C2)Cl)N)C3=NC=NC4=C3C=CN4 [Capivasertib] (first compound max 1 µM, 7x7, partner max 3 µM) &field=combination Emax returns 0.487

----------
Tested on: PCI-30 (Head and Neck Carcinoma)
Test: Bliss excess, mean over the matrix (fraction); higher = more synergy
measured parameter: Bliss excess

compound	assayed system	measured parameter	endpoint result
C=CCn1c(=O)c2cnc(Nc3ccc(N4CCN(C)CC4)cc3)nc2n1-c1cccc(C(C)(C)O)n1 [AZD1775] + C1CN(CCC1(C(=O)N[C@@H](CCO)C2=CC=C(C=C2)Cl)N)C3=NC=NC4=C3C=CN4 [Capivasertib] (first compound max 3 µM, partner max 3 µM)	PCI-30 (Head and Neck Carcinoma)	Bliss excess	-0.0677
CC(=O)Nc1cccc(-n2c(=O)n(C3CC3)c(=O)c3c(Nc4ccc(I)cc4F)n(C)c(=O)c(C)c32)c1 [Trametinib] + Cc1nc(-c2cn3c(n2)-c2ccc(-c4cnn(C(C)(C)C(N)=O)c4)cc2OCC3)n(C(C)C)n1 [Taselisib] (first compound max 1 µM, 7x7, partner max 10 µM)	PCI-30 (Head and Neck Carcinoma)	Bliss excess	0.0485

GET /value?item= CC1(C)CCC(CN2CCN(c3ccc(C(=O)NS(=O)(=O)c4ccc(NCC5CCOCC5)c([N+](=O)[O-])c4)c(Oc4cnc5[nH]ccc5c4)c3)CC2)=C(c2ccc(Cl)cc2)C1 [Venetoclax] + C[C@@H](Nc1cc(F)cc(F)c1)c1cc(C(=O)N(C)C)cc2c(=O)cc(N3CCOCC3)oc12 [AZD8186] (first compound max 1 µM, 7x7, partner max 3 µM) &field=Bliss excess returns -0.0292

----------
The reader will find reported combination Emax values listed item by item below.
Test system: SU-DHL-6 (B-Cell Non-Hodgkin's Lymphoma)
Test: combination Emax (second highest fraction inhibited in the dose matrix, 72 h); higher = more inhibition; extreme values may be limits of the assay
Number, no unit, nothing else.

compound	endpoint result
CN(C)CCCOc1ccc(-c2ccc3ncc4c(c3c2)n(C2CCOCC2)c(=O)n4C)cn1 [AZD0156] + C=CCn1c(=O)c2cnc(Nc3ccc(N4CCN(C)CC4)cc3)nc2n1-c1cccc(C(C)(C)O)n1 [AZD1775] (first compound max 1 µM, partner max 1 µM)	0.699
Cc1c2c(nn1C)CSCc1cc(n(C)n1)CSc1cc(c3ccccc3c1)OCCCc1c(C(=O)O)n(C)c3c-2c(Cl)ccc13 [AZD5991] + Cn1cnc2c(F)c(Nc3ccc(Br)cc3Cl)c(C(=O)NOCCO)cc21 [Selumetinib] (first compound max 1 µM, 7x7, partner max 3 µM)	1

GET /value?item= C[C@@H](c1ccc2nccn2c1)n1nnc2ncc(-c3cnn(C)c3)nc21 [Savolitinib] + CC1(C)CCC(CN2CCN(c3ccc(C(=O)NS(=O)(=O)c4ccc(NCC5CCOCC5)c([N+](=O)[O-])c4)c(Oc4cnc5[nH]ccc5c4)c3)CC2)=C(c2ccc(Cl)cc2)C1 [Venetoclax] (first compound max 1 µM, 7x7, partner max 1 µM) &field=combination Emax returns 0.465

----------
The reader will find reported Bliss excess values listed item by item below.
System: SW1271 (Small Cell Lung Carcinoma)
Assay: Bliss excess, mean over the matrix (fraction); higher = more synergy
Number, no unit, nothing else.

The following molecules have reported results that may help.
molecule	assayed system	Bliss excess
Cc1c2c(nn1C)CSCc1cc(n(C)n1)CSc1cc(c3ccccc3c1)OCCCc1c(C(=O)O)n(C)c3c-2c(Cl)ccc13 [AZD5991] + CC(=O)O[C@H]1C(=O)[C@@]2(C)[C@H]([C@H](OC(=O)c3ccccc3)[C@]3(O)C[C@H](OC(=O)[C@H](O)[C@@H](NC(=O)c4ccccc4)c4ccccc4)C(C)=C1C3(C)C)[C@]1(OC(C)=O)CO[C@@H]1C[C@@H]2O [Paclitaxel] (first compound max 1 µM, 7x7, partner max 3 µM)	SW1271 (Small Cell Lung Carcinoma)	-0.0228
C[C@@H](c1ccc2nccn2c1)n1nnc2ncc(-c3cnn(C)c3)nc21 [Savolitinib] + CC1(C)CCC(CN2CCN(c3ccc(C(=O)NS(=O)(=O)c4ccc(NCC5CCOCC5)c([N+](=O)[O-])c4)c(Oc4cnc5[nH]ccc5c4)c3)CC2)=C(c2ccc(Cl)cc2)C1 [Venetoclax] (first compound max 1 µM, 7x7, partner max 1 µM)	SW1271 (Small Cell Lung Carcinoma)	-0.0436
COc1nnc2ccc(N3CCC(c4ccc(OCCN5CCN(C)C(=O)[C@H]5C)cc4)CC3)nn12 [AZD5153] + CCN(CCO)CCCOc1ccc2c(Nc3cc(CC(=O)Nc4cccc(F)c4)[nH]n3)ncnc2c1 [AZD2811] (first compound max 1 µM, 7x7, partner max 1 µM)	SW1271 (Small Cell Lung Carcinoma)	-0.0234

GET /value?item= CS(=O)(=O)CCNCc1ccc(-c2ccc3ncnc(Nc4ccc(OCc5cccc(F)c5)c(Cl)c4)c3c2)o1 [Lapatinib] + C[C@@H](Oc1cc(-c2cnn(C3CCNCC3)c2)cnc1N)c1c(Cl)ccc(F)c1Cl [Crizotinib] (first compound max 10 µM, 7x7, partner max 10 µM) &field=Bliss excess returns -0.03

GET /value?item= Cc1c2c(nn1C)CSCc1cc(n(C)n1)CSc1cc(c3ccccc3c1)OCCCc1c(C(=O)O)n(C)c3c-2c(Cl)ccc13 [AZD5991] + Cc1cc2ncnn2cc1Nc1ncc2c(n1)n(C1CCOCC1)c(=O)n2C [AZD7648] (first compound max 1 µM, 7x7, partner max 10 µM) &field=Bliss excess returns -0.0308

GET /value?item= COc1cccc(OCCCN)c1-c1cc(Nc2cnc(C#N)cn2)n[nH]1 [Prexasertib] + CCc1c2c(nc3ccc(O)cc13)-c1cc3c(c(=O)n1C2)COC(=O)[C@]3(O)CC [SN-38] (first compound max 1 µM, 7x7, partner max 0.3 µM) &field=Bliss excess returns -0.088

GET /value?item= CC1(C)CCC(CN2CCN(c3ccc(C(=O)NS(=O)(=O)c4ccc(NCC5CCOCC5)c([N+](=O)[O-])c4)c(Oc4cnc5[nH]ccc5c4)c3)CC2)=C(c2ccc(Cl)cc2)C1 [Venetoclax] + Cc1cc2ncnn2cc1Nc1ncc2c(n1)n(C1CCOCC1)c(=O)n2C [AZD7648] (first compound max 1 µM, 7x7, partner max 10 µM) &field=Bliss excess returns -0.115

GET /value?item= C[C@@H](c1ccc2nccn2c1)n1nnc2ncc(-c3cnn(C)c3)nc21 [Savolitinib] + Cc1c2c(nn1C)CSCc1cc(n(C)n1)CSc1cc(c3ccccc3c1)OCCCc1c(C(=O)O)n(C)c3c-2c(Cl)ccc13 [AZD5991] (first compound max 1 µM, 7x7, partner max 1 µM) &field=Bliss excess returns -0.0415
